TEST SYSTEM: BRD4-BD2 (Homo sapiens (Human), UniProt O60885)
METHOD NOTES: competitive TR-FRET assay, BET-BD with acetylated peptide ligand
SETTINGS: Table 2, inhibitor potency by TR-FRET
Reported IC50 values follow for various compounds
Give just the numeric value; µM need not be written.

Below, 5 compounds whose answers are already recorded.
CC(=O)N1c2ccc(-c3ccsc3)cc2[C@H](NC(=O)OC(C)C)C[C@@H]1C ... 4.6
CC(=O)N1c2ccc(-c3ccco3)cc2[C@H](NC(=O)OC(C)C)C[C@@H]1C ... 2.6
CC(=O)N1c2ccc(-c3cccs3)cc2[C@H](NC(=O)OC(C)C)C[C@@H]1C ... 3
CC(=O)N1c2ccc(-c3ccoc3)cc2[C@H](NC(=O)OC(C)C)C[C@@H]1C ... 4.3
CC(=O)N1c2ccc(-c3cc[nH]c3)cc2[C@H](NC(=O)OC(C)C)C[C@@H]1C ... 1.2

Next up:
Recorded IC50 for CC(=O)N1c2ccc(-c3ccc[nH]3)cc2[C@H](NC(=O)OC(C)C)C[C@@H]1C on BRD4-BD2 (Homo sapiens (Human), UniProt O60885) was 8.5
